assay: Volume of distribution at steady state in Sprague-Dawley rat plasma at 5 mg/kg, iv by UPLC-MS/MS analysis; assay type: ADME, organism-based; settings: read-out: Vdss
endpoint name: Vd (L/kg)
The answer is to be given in L/kg; state only the numeric part.

response.value for "C[C@H]1[C@@H](O[C@@H]2CC[C@@]3(C)[C@@H](C2)C[C@H](O)[C@@H]2[C@@H]3CC[C@]3(C)[C@@H]([C@H](C)CCC(=O)O)CC[C@@H]23)O[C@@H]2O[C@]3(C)CC[C@H]4[C@H](C)CC[C@@H]1[C@@]24OO3" (field: Vd) = 0.346

These entries and their values trace back to ChEMBL document CHEMBL4828739.
